Biological target: COX I (Homo sapiens, UniProt P23219)
Sequence (P23219 24-599): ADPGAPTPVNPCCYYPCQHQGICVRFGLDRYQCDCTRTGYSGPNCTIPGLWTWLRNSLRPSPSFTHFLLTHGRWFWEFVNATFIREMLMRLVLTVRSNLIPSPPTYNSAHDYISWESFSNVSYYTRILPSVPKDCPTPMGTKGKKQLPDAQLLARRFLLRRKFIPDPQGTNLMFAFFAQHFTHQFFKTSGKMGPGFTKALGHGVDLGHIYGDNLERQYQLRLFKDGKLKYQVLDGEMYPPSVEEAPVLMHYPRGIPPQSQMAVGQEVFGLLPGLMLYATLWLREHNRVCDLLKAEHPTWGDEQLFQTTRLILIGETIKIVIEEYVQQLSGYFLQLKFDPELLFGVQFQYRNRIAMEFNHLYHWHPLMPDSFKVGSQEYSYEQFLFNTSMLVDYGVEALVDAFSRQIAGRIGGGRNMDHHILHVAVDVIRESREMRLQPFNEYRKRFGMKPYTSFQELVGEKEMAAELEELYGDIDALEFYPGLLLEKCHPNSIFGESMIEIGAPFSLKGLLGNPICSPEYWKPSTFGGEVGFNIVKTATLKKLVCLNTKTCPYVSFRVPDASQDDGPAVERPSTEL
pIC50: −log10 of the molar value.
MEASUREMENT TYPE: pIC50

# SMILES RECORD, pIC50
records = [
    ("COc1ccc2cc(S(N)(=O)=O)ccc2c1C(=O)c1ccc(F)cc1F", 5.22),
    ("NS(=O)(=O)c1ccc2c(C(=O)c3ccc(F)cc3)c(Cl)ccc2c1", 4.00),
    ("COc1ccc2cc(S(N)(=O)=O)ccc2c1C(=O)c1ccc(F)cc1C(F)(F)F", 4.39),
    ("COc1ccc2cc(S(N)(=O)=O)ccc2c1C(=O)c1cccc(F)c1", 4.20),
    ("CS(=O)(=O)c1ccc2c(C(=O)c3ccc(Cl)cc3)c(C#N)ccc2c1", 4.03),
]

[a] COc1ccc2cc(S(N)(=O)=O)ccc2c1C(=O)c1ccc(C)cc1
[b] COc1ccc2cc(S(C)(=O)=O)ccc2c1C(=O)c1ccc(F)cc1
Prompt: Which value of pIC50 is greater, the one for a or the one for b ? Answer by quoting the chosen item's label.
Response: a

----------
Sequence of the target: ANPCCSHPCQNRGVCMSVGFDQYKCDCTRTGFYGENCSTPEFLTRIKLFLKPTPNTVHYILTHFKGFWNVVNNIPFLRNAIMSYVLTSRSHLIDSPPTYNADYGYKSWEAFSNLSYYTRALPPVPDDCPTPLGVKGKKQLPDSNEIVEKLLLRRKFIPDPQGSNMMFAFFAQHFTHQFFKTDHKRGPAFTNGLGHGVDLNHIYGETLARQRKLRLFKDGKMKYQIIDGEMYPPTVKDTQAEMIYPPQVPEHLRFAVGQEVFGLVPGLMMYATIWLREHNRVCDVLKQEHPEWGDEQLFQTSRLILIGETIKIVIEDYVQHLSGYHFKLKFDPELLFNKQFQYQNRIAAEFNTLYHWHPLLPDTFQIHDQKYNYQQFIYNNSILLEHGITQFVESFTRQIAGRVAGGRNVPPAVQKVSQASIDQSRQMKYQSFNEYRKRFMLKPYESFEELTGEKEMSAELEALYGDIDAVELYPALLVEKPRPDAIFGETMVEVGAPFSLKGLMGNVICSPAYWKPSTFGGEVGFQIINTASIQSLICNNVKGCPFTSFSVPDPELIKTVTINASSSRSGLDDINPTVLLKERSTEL
MEASUREMENT TYPE: IC50 (nM)

The examples below pair each entry with its known result.
# COMPOUND, UNIT OF MEASURE, RECORDED VALUE
data = [
    ("CS(=O)(=O)c1ccc2c(C(=O)c3ccccc3F)c(C#N)ccc2c1 [compound 99]", "nM", 500),
    ("CS(=O)(=O)c1ccc2c(C(=O)c3ccc(F)cc3)cccc2c1 [compound 95]", "nM", 2730),
    ("COc1ccc2cc(S(C)(=O)=O)ccc2c1C(=O)c1ccccc1 [compound 94]", "nM", 2430),
    ("CS(=O)(=O)c1ccc2c(C(=O)c3ccccc3)c(C#N)ccc2c1 [compound 97]", "nM", 800),
]

[1] CS(=O)(=O)c1ccc2c(C(=O)c3ccccc3)c(O)ccc2c1 [compound 93]
[2] CCOc1ccc2cc(S(N)(=O)=O)ccc2c1C(=O)c1ccc(F)cc1 [compound 5]
Prompt: Which value of IC50 is greater, the one for 1 or the one for 2 ? Answer by quoting the chosen item's label.
Response: 1
(1: 7840 nM, 2: 560 nM)

[a] NS(=O)(=O)c1ccc2c(C(=O)c3ccc(F)cc3)c(Cl)ccc2c1 [compound 66]
[b] N#Cc1ccc2cc(S(N)(=O)=O)ccc2c1C(=O)c1ccc(F)cc1 [compound 64]
Prompt: Which value of IC50 is greater, the one for a or the one for b ? Answer by quoting the chosen item's label.
Response: b

Values were extracted from patent US5962531A.
